Readings of EC50 for the listed binders
# subject of test: T1, human CDH6 on tumor cells (OVCAR3 cells, PA-1 cells) (human, UniProt P55285 54-790)
# T1 sequence: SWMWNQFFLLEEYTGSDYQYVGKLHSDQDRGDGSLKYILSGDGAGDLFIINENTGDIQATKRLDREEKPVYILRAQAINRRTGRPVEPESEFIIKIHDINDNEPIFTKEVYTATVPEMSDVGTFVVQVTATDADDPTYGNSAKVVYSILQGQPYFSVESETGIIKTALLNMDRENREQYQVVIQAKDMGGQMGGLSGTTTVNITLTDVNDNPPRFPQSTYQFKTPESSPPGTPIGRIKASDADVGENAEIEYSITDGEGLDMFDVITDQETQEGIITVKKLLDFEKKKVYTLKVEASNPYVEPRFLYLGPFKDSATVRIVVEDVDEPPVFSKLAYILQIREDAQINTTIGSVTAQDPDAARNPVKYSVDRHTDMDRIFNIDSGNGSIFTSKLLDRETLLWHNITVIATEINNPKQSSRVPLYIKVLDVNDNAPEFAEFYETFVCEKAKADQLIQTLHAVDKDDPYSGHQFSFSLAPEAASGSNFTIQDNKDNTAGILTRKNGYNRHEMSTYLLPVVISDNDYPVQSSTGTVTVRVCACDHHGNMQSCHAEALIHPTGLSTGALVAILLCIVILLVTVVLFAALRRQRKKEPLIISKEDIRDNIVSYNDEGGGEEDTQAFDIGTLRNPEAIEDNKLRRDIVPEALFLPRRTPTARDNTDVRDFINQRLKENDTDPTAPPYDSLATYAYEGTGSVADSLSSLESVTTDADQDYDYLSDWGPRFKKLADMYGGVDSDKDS
# assay overview: FACS, OVCAR3 cells
Number only, in nM; omit the unit.

binder	EC50 [nM]
hCDH6-6-H3L5 (antibody, V domains shown, Humanized) VH: EVQLVQSGAEVKKPGASVKVSCKASGYTFTDYYMAWVRQAPRQGLEWMGYIFPNSGGTDYSQKFKGRVTMTVDKSTSTVYMELSSLRSEDTAVYYCARELGADYGDYYAMDHWGQGTTVTVSS VL: DIVMTQSPLSLPVTPGEPASISCRASENIDSYLAWYLQKPGKSPQLLVYSATLLADGVPDRFSGSGSGTDFTLKISRVEAEDVGVYYCQHYYRTPPTFGQGTKLEIK	0.69
hCDH6-6-H1L3 (antibody, V domains shown, Humanized) VH: EVQLVQSGAEVKKPGASVKVSCKASGYTFTDYYMAWVRQAPGQGLEWMGYIFPNSGGTDYSQKFKGRVTMTVDKSTSTVYMELSSLRSEDTAVYYCARELGADYGDYYAMDHWGQGTTVTVSS VL: DIQMTQSPSSLSASVGDRVTITCRASENIDSYLAWYQQKPGKSPQLLVYSATLLADGVPSRFSGSGSGTDYTLTISSLQPEDFATYYCQHYYRTPPTFGQGTKLEIK	0.63

Then this binder:
Ask: Entry hCDH6-6-H1L1 (antibody, V domains shown, Humanized) VH: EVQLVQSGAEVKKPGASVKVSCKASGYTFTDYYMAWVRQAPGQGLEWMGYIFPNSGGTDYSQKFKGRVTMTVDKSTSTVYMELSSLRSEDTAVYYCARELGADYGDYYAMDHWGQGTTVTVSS VL: DIQMTQSPSSLSASVGDRVTITCRASENIDSYLAWYQQKPGKSPKLLLYSATLLADGVPSRFSGSGSGTDYTLTISSLQPEDFATYYCQHYYRTPPTFGQGTKLEIK has what EC50?
Reply: 0.62

Values from patent US20260234242A1
